Molecular target: T1, human TDRD5 L1 (Homo sapiens, UniProt Q8NAT2 7-80)
T1 sequence: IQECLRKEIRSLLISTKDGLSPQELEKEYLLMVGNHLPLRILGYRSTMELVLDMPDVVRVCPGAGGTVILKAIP
Test: ELISA
recorded.metric: binding result

[[record]]
binder = "UUACCGUUACCGUUACCGUUACCG (ssRNA) [TERRA G4 mut RNA]"
observed_value = "no binding"

[[record]]
binder = "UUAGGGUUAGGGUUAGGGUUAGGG (structured_RNA) [TERRA G4 RNA]"
observed_value = "binds"

[[record]]
binder = "GGUGGGCAGGGGAGUGGGGGUGGG (structured_RNA) [Cluster G4-1 RNA]"
observed_value = "binds"

[[record]]
binder = "GGUCCGCAGCCGAGUCCGGGUCCG (ssRNA) [Cluster G4-1 mut RNA]"
observed_value = "no binding"

